Listed here are sequences together with their documented furin cleavage Z-score.
Target: furin, P09958;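 note: purified furin at 1:10 enzyme:substrate in 50 mM HEPES pH 7.5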
Sequence (P09958 whole entry): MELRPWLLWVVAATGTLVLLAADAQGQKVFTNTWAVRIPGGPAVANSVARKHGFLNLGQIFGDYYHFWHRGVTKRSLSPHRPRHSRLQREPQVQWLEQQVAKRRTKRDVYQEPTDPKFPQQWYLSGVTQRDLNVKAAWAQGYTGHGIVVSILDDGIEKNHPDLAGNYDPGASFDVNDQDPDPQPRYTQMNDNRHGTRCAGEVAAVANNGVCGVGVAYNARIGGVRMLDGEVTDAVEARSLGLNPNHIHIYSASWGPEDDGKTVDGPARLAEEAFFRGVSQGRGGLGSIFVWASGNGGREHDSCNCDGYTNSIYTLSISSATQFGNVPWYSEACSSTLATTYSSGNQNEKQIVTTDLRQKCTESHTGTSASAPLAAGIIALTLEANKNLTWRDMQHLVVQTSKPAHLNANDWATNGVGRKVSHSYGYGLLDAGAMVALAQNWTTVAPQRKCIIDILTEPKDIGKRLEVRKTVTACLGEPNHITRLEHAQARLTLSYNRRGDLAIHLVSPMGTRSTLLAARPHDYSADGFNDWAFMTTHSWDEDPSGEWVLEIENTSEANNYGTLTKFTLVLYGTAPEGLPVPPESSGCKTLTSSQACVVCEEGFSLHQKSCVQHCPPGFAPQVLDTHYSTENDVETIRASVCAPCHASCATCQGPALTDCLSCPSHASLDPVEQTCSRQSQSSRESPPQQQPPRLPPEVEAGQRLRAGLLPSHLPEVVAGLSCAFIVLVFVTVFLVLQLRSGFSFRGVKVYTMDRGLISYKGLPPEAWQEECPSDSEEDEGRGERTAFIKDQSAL
Experiment: furin cleavage Z-score vs untreated control; higher = more cleavage, active = 3.5 or more, inactive = 1 or less, 8 variable residues between constant flanks
Details: 30 min
This is one part of the list. No count for the full screen is at hand.
Provide a numeric answer; units are not to be included.

CARPKRLDSAAGNASASA [FS-2578] | 0.332
CARPKRADTFAGNASASA [FS-2054] | 7.85
CARPSRKRRSAGNASASA [FS-1070] | 9.65
CATGTYVYNHAGNASASA [HC633] | -0.282
CADFMEECSQAGNASASA [HC1807] | -1.48

Sure, the documented furin cleavage Z-score for CARPSGMFDSAGNASASA [HC914] is -0.285

Per the record, CARPKRYFTIAGNASASA [FS-2579] has furin cleavage Z-score of -0.0555
